Hi there, I'd appreciate the recorded enrichment ratio for every entry that follows.
B1: PhoQ; a variant is named by its letters at X, in order, P23837 (parent)
chain: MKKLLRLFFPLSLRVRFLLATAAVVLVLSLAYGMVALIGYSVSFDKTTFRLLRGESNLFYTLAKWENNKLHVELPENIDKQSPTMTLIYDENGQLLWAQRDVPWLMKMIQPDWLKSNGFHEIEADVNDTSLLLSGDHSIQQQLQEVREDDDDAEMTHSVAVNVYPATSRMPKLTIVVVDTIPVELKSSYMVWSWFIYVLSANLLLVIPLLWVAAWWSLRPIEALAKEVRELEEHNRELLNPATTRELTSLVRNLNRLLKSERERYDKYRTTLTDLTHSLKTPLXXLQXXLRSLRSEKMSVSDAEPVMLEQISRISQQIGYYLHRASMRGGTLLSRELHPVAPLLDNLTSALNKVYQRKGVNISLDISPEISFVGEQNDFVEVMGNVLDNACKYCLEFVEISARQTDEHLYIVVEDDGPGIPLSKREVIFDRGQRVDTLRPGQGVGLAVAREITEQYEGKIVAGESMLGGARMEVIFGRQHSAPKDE

variants of: B1; experiment: enrichment ratio after two sorts for PhoP signalling (ratio (wild type AVST 3.29)); higher = more functional; details: with PhoP (E. coli)
Over roughly 140,000 sequences, “enrichment ratio after two sorts for PhoP signalling” has its median near 0; the highest 2% begin near 11. The list comes from a sample in which the highest values are over-represented; it also holds close analogues and randomly drawn sequences.

In: Name the reported enrichment ratio value associated with the variant AVTW
Out: 43.5

In: enrichment ratio for GGAK ?
Out: ≤ 0.25

In: Reported enrichment ratio for MEYY : what is it?
Out: 18.8

In: Entry under review: QQHF . Reported enrichment ratio?
Out: ≤ 0.25

In: Returns the measured enrichment ratio for the input variant. Input: AVRW
Out: ≤ 0.25

In: Report enrichment ratio for SDHR please.
Out: ≤ 0.25

In: Record request: enrichment ratio value, item AKAW
Out: ≤ 0.25

In: I'd like to know its enrichment ratio. The variant in question is STYY
Out: ≤ 0.25

In: # lookup: enrichment ratio of MTYY
Out: 0.96

In: Which enrichment ratio is reported for this variant? QIYY
Out: ≤ 0.25

In: Look up enrichment ratio for this variant: RHES
Out: ≤ 0.25

In: What value of measured enrichment ratio is listed for AVFW ?
Out: ≤ 0.25

In: Sample LFWM — what was its enrichment ratio?
Out: ≤ 0.25

In: If you can, please state the reported enrichment ratio value of LMNI .
Out: ≤ 0.25

In: // enrichment ratio lookup, key: IVWG
Out: ≤ 0.25

In: Looking for the measured enrichment ratio of VANS , can you help?
Out: ≤ 0.25

In: Name the reported enrichment ratio value associated with the variant YCYV
Out: ≤ 0.25

In: I would be grateful if you could share the reported enrichment ratio for NVAW .
Out: ≤ 0.25

In: Entry AVPA : reported enrichment ratio = ?
Out: ≤ 0.25

In: Using the record for KSTV , report its enrichment ratio.
Out: ≤ 0.25

In: Look up enrichment ratio: AVTK
Out: 17.9

In: # input variant: QEYY ; wanted: its enrichment ratio
Out: 17.4
